# TEST NAME: Chemical (hydrolytic) stability in buffered aqueous solutions
# Assay type: physicochemical
# CONDITION NOTES: 24 hour incubation in pH 7.4 buffer, 37° C.
Recorded Prodrug levels (% remaining), pH 7.4 values for a group of compounds are listed next.
// units = %; emit number, no label

CC(=O)O[C@@]12CO[C@@H]1C[C@H](O)[C@@]1(C)C(=O)[C@H](O)C3=C(C)[C@@H](OC(=O)[C@H](OC(=O)CCCN4CCCCC4)[C@@H](NC(=O)OC(C)(C)C)c4ccccc4)C[C@@](O)([C@@H](OC(=O)c4ccccc4)C12)C3(C)C (some centres unmarked) : 13

Now turn to the next compound.
Note to self: Prodrug levels (% remaining), pH 7.4 recorded for CC(=O)O[C@@]12CO[C@@H]1C[C@H](O)[C@@]1(C)C(=O)[C@H](O)C3=C(C)[C@@H](OC(=O)[C@H](OC(=O)CCCCN4CCCCC4)[C@@H](NC(=O)OC(C)(C)C)c4ccccc4)C[C@@](O)([C@@H](OC(=O)c4ccccc4)C12)C3(C)C (some centres unmarked) was 65

----------
# TEST NAME: Kinetic aqueous solubility of docetaxel derivatives in acetate buffer
# CONDITION NOTES: 10 mM acetate buffer with 10% (v/v) ethanol, pH 5, aqueous with cosolvent or surfactant or cyclodextrin, kinetic from dmso stock
Quick reference for solubility among some compounds
Output spec: scalar in µg/mL, unitless text.

Solved cases below.
CC(=O)O[C@@]12CO[C@@H]1C[C@H](O)[C@@]1(C)C(=O)[C@H](O)C3=C(C)[C@@H](OC(=O)[C@H](OC(=O)CCN4CCOCC4)[C@@H](NC(=O)OC(C)(C)C)c4ccccc4)C[C@@](O)([C@@H](OC(=O)c4ccccc4)C12)C3(C)C (stereo partly shown) : 1500
CC(=O)O[C@@]12CO[C@@H]1C[C@H](O)[C@@]1(C)C(=O)[C@H](O)C3=C(C)[C@@H](OC(=O)[C@H](OC(=O)CN4CCOCC4)[C@@H](NC(=O)OC(C)(C)C)c4ccccc4)C[C@@](O)([C@@H](OC(=O)c4ccccc4)C12)C3(C)C (stereo partly shown) : 300
CC(=O)O[C@@]12CO[C@@H]1C[C@H](O)[C@@]1(C)C(=O)[C@H](O)C3=C(C)[C@@H](OC(=O)[C@H](OC(=O)CN4CCN(C)CC4)[C@@H](NC(=O)OC(C)(C)C)c4ccccc4)C[C@@](O)([C@@H](OC(=O)c4ccccc4)C12)C3(C)C (stereo partly shown) : 25000

Then there is this compound:
Entry CC(=O)O[C@@]12CO[C@@H]1C[C@H](O)[C@@]1(C)C(=O)[C@H](O)C3=C(C)[C@@H](OC(=O)[C@H](OC(=O)CCCCN4CCN(C)CC4)[C@@H](NC(=O)OC(C)(C)C)c4ccccc4)C[C@@](O)([C@@H](OC(=O)c4ccccc4)C12)C3(C)C (stereo partly shown) ; solubility = 4100

----------
# TEST NAME: Chemical (hydrolytic) stability in buffered aqueous solutions
# Format: physicochemical
# CONDITION NOTES: citrate/HEPES (10 mM/10 mM) buffered aqueous solution, pH 4; read-out: hydrolysis half-life (converted)
EXPERIMENTAL ENDPOINT: half-life at 50 g/ml

// half-life at 50 g/ml value for CC(=O)O[C@@]12CO[C@@H]1C[C@H](O)[C@@]1(C)C(=O)[C@H](O)C3=C(C)[C@@H](OC(=O)[C@H](OC(=O)CCCN4CCN(C)CC4)[C@@H](NC(=O)OC(C)(C)C)c4ccccc4)C[C@@](O)([C@@H](OC(=O)c4ccccc4)C12)C3(C)C (stereo partly shown) : ~49 days
